The following molecules are shown together with reported pKd values.
Tested system: human TYK2 (JH2domain-pseudokinase) (Homo sapiens (Human))
Assay method text: TYK2 JH2 Domain Binding Assay (KINOMEscan)
pKd: −log10 of the molar value.
Value kind: pKd

[[record]]
molecule = "CNc1cc(Nc2cccn(-c3cccnc3)c2=O)nc2c(C(=O)N[C@@H]3CCC[C@@H](OC)C3)cnn12 [I-1288]"
value_kind = "pKd"
reported_value = "> 9.70"

[[record]]
molecule = "CNc1cc(Nc2cccn(C[C@H]3CCCCO3)c2=O)nc2c(C(=O)NC3CC3)cnn12"
value_kind = "pKd"
reported_value = "9.00 to 9.70"

[[record]]
molecule = "CNc1cc(Nc2cccn([C@H]3CCCOC3)c2=O)nc2c(C(=O)NC3CC3)cnn12"
value_kind = "pKd"
reported_value = "> 9.70"

[[record]]
molecule = "CNc1cc(Nc2cccnc2OC2CC2)nc2c(C(=O)NC3CC(F)(F)C3)cnn12"
value_kind = "pKd"
reported_value = "9.00 to 9.70"

[[record]]
molecule = "CNc1cc(Nc2cccn([C@@H]3CCCOC3)c2=O)nc2c(C(=O)N[C@H]3CC[C@H](O)C3)cnn12 (stereo in doubt) [I-702]"
value_kind = "pKd"
reported_value = "9.00 to 9.70"

[[record]]
molecule = "CNc1cc(Nc2ccc3c(n2)CCO3)nc2c(C(=O)NC3CC3)cnn12"
value_kind = "pKd"
reported_value = "9.00 to 9.70"

[[record]]
molecule = "CNc1cc(-c2cn(C3CCOCC3)c3ncccc23)nc2c(C(=O)N[C@H]3CC[C@@H]3OC)cnn12 [I-1065]"
value_kind = "pKd"
reported_value = "> 9.70"

[[record]]
molecule = "CNc1cc(Nc2cccn(CCOC3CC3)c2=O)nc2c(C(=O)NC3CC4(COC4)C3)cnn12"
value_kind = "pKd"
reported_value = "8.00 to 9.00"

[[record]]
molecule = "CNc1cc(Nc2cc(F)cnc2OC2CC2)nc2c(C(=O)NC3CC3)cnn12"
value_kind = "pKd"
reported_value = "> 9.70"

[[record]]
molecule = "CNc1cc(Nc2cccn([C@H]3CCC[C@@H](OC)C3)c2=O)nc2c(C(=O)N[C@@H]3CC[C@H]3OC)cnn12"
value_kind = "pKd"
reported_value = "> 9.70"

[[record]]
molecule = "CNc1cc(Nc2cccc(N3CC[C@@H](OC)C3)n2)nc2c(C(=O)NC3CC3)cnn12 [I-482]"
value_kind = "pKd"
reported_value = "9.00 to 9.70"

[[record]]
molecule = "CNc1cc(Nc2cccnc2OC(C)C)nc2c(C(=O)N[C@H]3C[C@H]3F)cnn12"
value_kind = "pKd"
reported_value = "> 9.70"

[[record]]
molecule = "NC(=O)c1cnn2c(N)cc(Nc3cc(N4CCCC4)nc(C(F)(F)F)c3)nc12"
value_kind = "pKd"
reported_value = "8.00 to 9.00"

[[record]]
molecule = "CNc1cc(Nc2cccn([C@H]3CCCC[C@H]3O)c2=O)nc2c(C(=O)N[C@H]3CC[C@@H]3OC)cnn12"
value_kind = "pKd"
reported_value = "9.00 to 9.70"

[[record]]
molecule = "CNc1cc(Nc2cccn(C3CCCOC3)c2=O)nc2c(C(=O)NC3CC3)cnn12 (stereo not shown)"
value_kind = "pKd"
reported_value = "> 9.70"

[[record]]
molecule = "CNc1cc(Nc2cccn(-c3nc(C)c(C)s3)c2=O)nc2c(C(=O)N[C@H]3C[C@H]3F)cnn12"
value_kind = "pKd"
reported_value = "9.00 to 9.70"

[[record]]
molecule = "Cc1c(Nc2cccnc2OC(C)C)nc2c(C(=O)N[C@@H]3C[C@@H]3F)cnn2c1N (stereo in doubt)"
value_kind = "pKd"
reported_value = "8.00 to 9.00"

[[record]]
molecule = "Cc1cc(Nc2cc(N)n3ncc(C(N)=O)c3n2)c(=O)n(-c2ccnn2C)c1"
value_kind = "pKd"
reported_value = "8.00 to 9.00"

[[record]]
molecule = "CNc1cc(Nc2cc(Cl)cnc2OC2CCC2)nc2c(C(=O)NC3COC3)cnn12"
value_kind = "pKd"
reported_value = "< 8.00"


* * *

Tested system: JAK2/JAK2 homdimeric complex (Homo sapiens (Human), UniProt O60674)
Sequence (O60674 whole entry): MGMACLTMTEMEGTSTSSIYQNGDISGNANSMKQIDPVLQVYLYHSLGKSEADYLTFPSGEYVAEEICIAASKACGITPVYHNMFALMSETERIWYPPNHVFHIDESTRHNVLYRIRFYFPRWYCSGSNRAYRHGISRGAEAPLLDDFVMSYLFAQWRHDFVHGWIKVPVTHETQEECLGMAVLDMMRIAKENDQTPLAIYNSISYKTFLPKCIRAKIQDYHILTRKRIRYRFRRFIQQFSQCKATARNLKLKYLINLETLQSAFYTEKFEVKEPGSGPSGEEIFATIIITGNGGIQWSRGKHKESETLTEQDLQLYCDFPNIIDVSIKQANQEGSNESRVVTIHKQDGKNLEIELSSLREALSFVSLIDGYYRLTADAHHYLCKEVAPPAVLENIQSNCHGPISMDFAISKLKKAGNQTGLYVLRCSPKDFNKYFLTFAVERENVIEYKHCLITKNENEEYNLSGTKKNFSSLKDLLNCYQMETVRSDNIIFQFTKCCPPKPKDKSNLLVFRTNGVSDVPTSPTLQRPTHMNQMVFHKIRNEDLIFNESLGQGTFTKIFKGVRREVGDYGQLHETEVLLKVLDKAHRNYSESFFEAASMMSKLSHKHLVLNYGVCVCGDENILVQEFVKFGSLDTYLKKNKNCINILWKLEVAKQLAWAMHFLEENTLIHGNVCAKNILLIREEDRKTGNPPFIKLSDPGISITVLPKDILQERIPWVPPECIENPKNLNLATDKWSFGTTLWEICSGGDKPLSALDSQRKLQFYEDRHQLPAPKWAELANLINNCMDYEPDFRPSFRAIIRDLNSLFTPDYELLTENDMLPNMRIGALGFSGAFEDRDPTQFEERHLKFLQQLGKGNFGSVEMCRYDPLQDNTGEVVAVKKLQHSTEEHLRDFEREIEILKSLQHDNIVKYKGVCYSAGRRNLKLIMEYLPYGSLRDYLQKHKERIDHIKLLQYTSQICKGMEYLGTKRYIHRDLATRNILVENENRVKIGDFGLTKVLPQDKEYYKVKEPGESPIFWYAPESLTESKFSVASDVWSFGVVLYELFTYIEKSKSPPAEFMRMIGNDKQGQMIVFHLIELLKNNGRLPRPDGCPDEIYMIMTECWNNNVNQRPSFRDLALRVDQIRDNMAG
Sequence (P32927 17-897 partner): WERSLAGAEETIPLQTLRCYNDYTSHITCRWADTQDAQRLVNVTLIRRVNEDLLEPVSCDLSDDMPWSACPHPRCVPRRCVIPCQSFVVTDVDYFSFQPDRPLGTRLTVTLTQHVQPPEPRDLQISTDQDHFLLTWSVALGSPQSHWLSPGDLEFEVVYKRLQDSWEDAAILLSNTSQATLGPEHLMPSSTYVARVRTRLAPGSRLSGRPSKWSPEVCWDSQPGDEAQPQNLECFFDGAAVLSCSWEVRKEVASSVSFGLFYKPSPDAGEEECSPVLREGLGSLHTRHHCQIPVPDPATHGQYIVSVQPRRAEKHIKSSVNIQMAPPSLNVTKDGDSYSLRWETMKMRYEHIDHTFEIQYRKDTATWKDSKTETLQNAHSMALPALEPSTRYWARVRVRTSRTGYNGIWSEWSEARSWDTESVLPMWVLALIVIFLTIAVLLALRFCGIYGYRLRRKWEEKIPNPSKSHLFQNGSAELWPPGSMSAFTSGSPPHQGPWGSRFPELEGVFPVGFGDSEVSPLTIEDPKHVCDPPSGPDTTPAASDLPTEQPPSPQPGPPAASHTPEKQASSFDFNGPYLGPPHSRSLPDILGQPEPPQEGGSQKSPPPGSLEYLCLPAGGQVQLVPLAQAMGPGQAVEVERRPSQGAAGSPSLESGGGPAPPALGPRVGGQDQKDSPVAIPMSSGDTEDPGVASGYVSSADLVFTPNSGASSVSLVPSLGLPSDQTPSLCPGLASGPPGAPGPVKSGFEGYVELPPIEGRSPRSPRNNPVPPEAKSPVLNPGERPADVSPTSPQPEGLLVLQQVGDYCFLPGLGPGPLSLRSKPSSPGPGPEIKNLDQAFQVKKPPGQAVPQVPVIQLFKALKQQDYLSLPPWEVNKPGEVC
Assay method text: GM-CSF Induced pSTAT5 in Human PBMC
Test context: GM-CSF 5 ng/mL for 20 minutes, pSTAT5 by MSD, read-out: PBMC_GMCSF_pSTAT5 IC50
pIC50: −log10 of the molar value.
Value kind: pIC50

[[record]]
compound = "CNc1cc(Nc2cccn(-c3ccc(F)cc3)c2=O)nc2c(C(=O)N[C@H]3C[C@H]3F)cnn12 [I-132]"
reported_value = "< 5.60"

[[record]]
compound = "CNc1cc(Nc2cccn(-c3nc(C)c(C)s3)c2=O)nc2c(C(=O)N[C@H]3C[C@H]3F)cnn12 [I-292]"
reported_value = "< 5.60"

[[record]]
compound = "CNc1cc(Nc2cc(C)cnc2OCCOC)nc2c(C(=O)NC3CC3)cnn12 [I-281]"
reported_value = "< 5.60"

[[record]]
compound = "CNc1cc(Nc2cc(Cl)cn(-c3ccn(C4CC4)n3)c2=O)nc2c(C(=O)NC3CC3)cnn12 [I-331]"
reported_value = "< 4.90"

[[record]]
compound = "CNc1cc(-c2cn(C(C)C)c3ncccc23)nc2c(C(=O)N[C@@H]3CC[C@@H]3O)cnn12 [I-578]"
reported_value = "< 4.30"

[[record]]
compound = "CNc1cc(Nc2cccn(-c3cnc(C(=O)N(C)C)cn3)c2=O)nc2c(C(=O)NC3CC3)cnn12 [I-127]"
reported_value = "< 4.90"

[[record]]
compound = "CNc1cc(Nc2cccn([C@H]3CCCOC3)c2=O)nc2c(C(=O)N[C@@H]3CC[C@H]3O)cnn12 [I-725]"
reported_value = "< 5.60"

[[record]]
compound = "[2H]C([2H])([2H])Oc1ncccc1Nc1cc(NC)n2ncc(C(=O)NC3CCC3)c2n1 [I-176]"
reported_value = "< 4.30"

[[record]]
compound = "CNc1cc(Nc2cccnc2OC)nc2c(C(=O)NOC(C)(C)C)cnn12 [I-612]"
reported_value = "< 4.30"

[[record]]
compound = "CNc1cc(Nc2cccn([C@@H]3CCC[C@H](OC)C3)c2=O)nc2c(C(=O)N[C@@H]3CC[C@H]3OC)cnn12 [I-1082]"
reported_value = "< 4.30"

[[record]]
compound = "CNc1cc(-c2cn(C(C)C)c3ncccc23)nc2c(C(N)=O)cnn12 [I-222]"
reported_value = "< 5.60"

[[record]]
compound = "CNc1cc(-c2c[nH]c3c(C)cc(C)cc23)nc2c(C(N)=O)cnn12 [I-36]"
reported_value = "< 4.90"

[[record]]
compound = "[2H]C([2H])([2H])Oc1ncccc1Nc1cc(NC)n2ncc(C(=O)NC3CC4(COC4)C3)c2n1 [I-417]"
reported_value = "< 4.30"

[[record]]
compound = "CNc1cc(Nc2cccn(-c3ccccn3)c2=O)nc2c(C(=O)N[C@@H]3CC[C@H]3OC)cnn12 (stereo in doubt) [I-816]"
reported_value = "< 5.60"

[[record]]
compound = "CNc1cc(Nc2cccn(-c3cnn(C)c3)c2=O)nc2c(C(=O)N[C@H]3C[C@H]3F)cnn12 [I-296]"
reported_value = "< 4.30"

[[record]]
compound = "CNc1cc(Nc2cccn([C@@H]3CC[C@H]3OC)c2=O)nc2c(C(=O)N[C@@H]3C[C@@H]3F)cnn12 [I-1022]"
reported_value = "< 4.90"

[[record]]
compound = "CNc1cc(Nc2cccn(-c3ncccc3F)c2=O)nc2c(C(=O)NC3CC3)cnn12 [I-143]"
reported_value = "< 4.30"

[[record]]
compound = "CNc1cc(Nc2cccn([C@@H]3CCN(CCF)C3)c2=O)nc2c(C(=O)NC3CCC3OC)cnn12 (stereo partly shown) [I-1096]"
reported_value = "< 4.30"

[[record]]
compound = "CNc1cc(Nc2cccn(-c3cc(C)on3)c2=O)nc2c(C(=O)NC3CC3)cnn12 [I-162]"
reported_value = "< 5.60"


* * *

Kd overview
Tested system: human TYK2 (JH2domain-pseudokinase) (Homo sapiens (Human), UniProt P29597)
Sequence (P29597 556-888): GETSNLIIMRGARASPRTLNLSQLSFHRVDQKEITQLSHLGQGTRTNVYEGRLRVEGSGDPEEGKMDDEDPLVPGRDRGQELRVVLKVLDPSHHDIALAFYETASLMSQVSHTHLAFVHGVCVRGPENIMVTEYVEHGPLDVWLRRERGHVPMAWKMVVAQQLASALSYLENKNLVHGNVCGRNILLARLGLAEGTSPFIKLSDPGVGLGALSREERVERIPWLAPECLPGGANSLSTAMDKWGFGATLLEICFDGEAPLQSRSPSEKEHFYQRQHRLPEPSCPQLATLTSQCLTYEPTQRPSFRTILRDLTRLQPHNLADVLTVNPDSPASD
Assay method text: TYK2 JH2 Domain Binding Assay (KINOMEscan)
Method: Binding constants for compounds of the present invention against the JH2 domain were determined by the following protocol for a KINOMEscan® assay (DiscoveRx). […] The TYK2 (JH2domain-pseudokinase) fusion protein was labeled with a chimeric double-stranded DNA tag containing the NFkB binding site (5′-[…]-3′) fused to an amplicon for qPCR readout, which was added directly to the expression extract (the final concentration of DNA-tag in the binding reaction is 0.1 nM). […]
Value kind: Kd

[[record]]
compound = "CNc1cc(-c2cn(C3CC3)c3ncccc23)nc2c(C(=O)N[C@H]3CC[C@@H]3OC)cnn12 (stereo in doubt)"
value_kind = "Kd"
reported_value = "< 0.2 nM"

[[record]]
compound = "CNc1cc(Nc2cccnc2OC2CCC2)nc2c(C(=O)NC3CC3)cnn12"
value_kind = "Kd"
reported_value = "0.2 to 1 nM"

[[record]]
compound = "Cc1cc(Nc2cc(N)n3ncc(C(N)=O)c3n2)c(=O)n(-c2cnn(C)c2)c1"
value_kind = "Kd"
reported_value = "0.2 to 1 nM"

[[record]]
compound = "CNc1cc(Nc2cccnc2OC)nc2c(C(=O)NC[C@@H](C)CO)cnn12"
value_kind = "Kd"
reported_value = "< 0.2 nM"

[[record]]
compound = "CNc1cc(Nc2cccc3ocnc23)nc2c(C(=O)NC3CC[C@@H]3OC)cnn12 (stereo partly drawn)"
value_kind = "Kd"
reported_value = "< 0.2 nM"

[[record]]
compound = "CNc1cc(-c2cn(C(C)C)c3ncccc23)nc2c(C(=O)NCC3(CO)CC3)cnn12"
value_kind = "Kd"
reported_value = "0.2 to 1 nM"

[[record]]
compound = "CNc1cc(Nc2cccn(C3CCC[C@H](OC)C3)c2=O)nc2c(C(=O)NCC(C)(C)CO)cnn12 (stereo partly drawn)"
value_kind = "Kd"
reported_value = "< 0.2 nM"

[[record]]
compound = "CNc1cc(Nc2cccn(CC3CCCCO3)c2=O)nc2c(C(=O)N[C@H]3C[C@H]3F)cnn12 (stereo partly drawn)"
value_kind = "Kd"
reported_value = "< 0.2 nM"

[[record]]
compound = "CNc1cc(Nc2cccn([C@@H]3CCCN(CCC#N)C3)c2=O)nc2c(C(=O)NC3CC3)cnn12"
value_kind = "Kd"
reported_value = "< 0.2 nM"

[[record]]
compound = "CNc1cc(Nc2cccn([C@H]3CCC[C@H](O)C3)c2=O)nc2c(C(=O)N[C@H]3CC[C@@H]3OC)cnn12 [I-1063]"
value_kind = "Kd"
reported_value = "< 0.2 nM"

[[record]]
compound = "CNc1cc(Nc2cccn(C3CCN(CC(F)F)CC3)c2=O)nc2c(C(N)=O)cnn12"
value_kind = "Kd"
reported_value = "< 0.2 nM"

[[record]]
compound = "CNc1cc(Nc2cc(Cl)cn(-c3cnn(C)c3F)c2=O)nc2c(C(=O)NC3CC3)cnn12"
value_kind = "Kd"
reported_value = "< 0.2 nM"

[[record]]
compound = "NC(=O)c1cnn2c(N)cc(Nc3cccn([C@H]4CC[C@@H](N5CCOCC5)CC4)c3=O)nc12"
value_kind = "Kd"
reported_value = "1 to 10 nM"

[[record]]
compound = "CNc1cc(Nc2cccnc2O[C@H]2C[C@H](OC)C2)nc2c(C(=O)N[C@H]3C[C@H]3F)cnn12"
value_kind = "Kd"
reported_value = "< 0.2 nM"

[[record]]
compound = "CNc1cc(Nc2cccn(-c3cnn(CC4CCOC4)c3)c2=O)nc2c(C(=O)NC3CC3)cnn12 (stereo not drawn)"
value_kind = "Kd"
reported_value = "< 0.2 nM"

[[record]]
compound = "CNc1cc(Nc2cccn([C@@H]3CC[C@H]3O)c2=O)nc2c(C(=O)NC3CC3)cnn12"
value_kind = "Kd"
reported_value = "< 0.2 nM"

[[record]]
compound = "CNc1cc(Nc2cccn([C@@H]3CCN(CCC#N)C3)c2=O)nc2c(C(=O)NC3CC3)cnn12"
value_kind = "Kd"
reported_value = "0.2 to 1 nM"

[[record]]
compound = "CNc1cc(Nc2cccn([C@@H]3CCN(CCF)C3)c2=O)nc2c(C(=O)NC3CC3)cnn12"
value_kind = "Kd"
reported_value = "< 0.2 nM"

[[record]]
compound = "CNc1cc(Nc2cccc([C@H]3CCCCO3)n2)nc2c(C(=O)N[C@@H]3CC[C@@H]3O)cnn12 [I-648]"
value_kind = "Kd"
reported_value = "0.2 to 1 nM"

[[record]]
compound = "CNc1cc(Nc2cccc(N3CCCC3=O)n2)nc2c(C(=O)NC3CCC3)cnn12"
value_kind = "Kd"
reported_value = "< 0.2 nM"

[[record]]
compound = "CNc1cc(Nc2cccn(-c3ccc(C(=O)N4CCCC4)cn3)c2=O)nc2c(C(=O)NC3CC3)cnn12"
value_kind = "Kd"
reported_value = "< 0.2 nM"


All values here come from patent US10508120B2.
